Please go through the items and note down their pIC50.
biological target: Sucrase-isomaltase, intestinal (Rattus norvegicus); assay: Inhibition of rat intestinal sucrase using sucrose as substrate
Sequence (P23739 1-1013 limits assumed): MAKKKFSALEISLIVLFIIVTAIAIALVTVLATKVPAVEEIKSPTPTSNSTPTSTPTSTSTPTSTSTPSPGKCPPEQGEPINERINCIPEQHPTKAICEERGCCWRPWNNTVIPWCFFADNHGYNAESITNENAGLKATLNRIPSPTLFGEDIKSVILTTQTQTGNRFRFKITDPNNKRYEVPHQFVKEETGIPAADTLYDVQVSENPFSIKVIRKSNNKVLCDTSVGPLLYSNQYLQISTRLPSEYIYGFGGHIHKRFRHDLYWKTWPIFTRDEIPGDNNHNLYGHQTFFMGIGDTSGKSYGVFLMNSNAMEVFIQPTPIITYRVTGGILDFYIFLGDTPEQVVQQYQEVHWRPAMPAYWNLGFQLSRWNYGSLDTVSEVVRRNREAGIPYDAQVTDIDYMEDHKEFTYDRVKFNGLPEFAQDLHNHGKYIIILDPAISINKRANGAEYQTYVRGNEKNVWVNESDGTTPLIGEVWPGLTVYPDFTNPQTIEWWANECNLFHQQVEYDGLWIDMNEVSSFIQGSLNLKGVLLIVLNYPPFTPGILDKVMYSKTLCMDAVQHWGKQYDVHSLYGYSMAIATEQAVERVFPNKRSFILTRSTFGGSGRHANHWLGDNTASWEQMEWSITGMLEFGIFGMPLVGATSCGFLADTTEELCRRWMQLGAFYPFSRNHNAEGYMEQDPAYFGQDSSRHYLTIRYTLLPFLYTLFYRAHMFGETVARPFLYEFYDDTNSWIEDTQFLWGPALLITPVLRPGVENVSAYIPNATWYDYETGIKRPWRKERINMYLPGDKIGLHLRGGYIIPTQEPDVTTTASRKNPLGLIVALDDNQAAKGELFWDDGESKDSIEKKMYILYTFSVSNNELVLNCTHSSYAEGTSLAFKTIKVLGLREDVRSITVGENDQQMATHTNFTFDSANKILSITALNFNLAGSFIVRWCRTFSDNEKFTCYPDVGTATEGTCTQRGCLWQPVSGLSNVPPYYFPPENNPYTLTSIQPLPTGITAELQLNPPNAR
Sequence (P23739 1014-1841 limits assumed): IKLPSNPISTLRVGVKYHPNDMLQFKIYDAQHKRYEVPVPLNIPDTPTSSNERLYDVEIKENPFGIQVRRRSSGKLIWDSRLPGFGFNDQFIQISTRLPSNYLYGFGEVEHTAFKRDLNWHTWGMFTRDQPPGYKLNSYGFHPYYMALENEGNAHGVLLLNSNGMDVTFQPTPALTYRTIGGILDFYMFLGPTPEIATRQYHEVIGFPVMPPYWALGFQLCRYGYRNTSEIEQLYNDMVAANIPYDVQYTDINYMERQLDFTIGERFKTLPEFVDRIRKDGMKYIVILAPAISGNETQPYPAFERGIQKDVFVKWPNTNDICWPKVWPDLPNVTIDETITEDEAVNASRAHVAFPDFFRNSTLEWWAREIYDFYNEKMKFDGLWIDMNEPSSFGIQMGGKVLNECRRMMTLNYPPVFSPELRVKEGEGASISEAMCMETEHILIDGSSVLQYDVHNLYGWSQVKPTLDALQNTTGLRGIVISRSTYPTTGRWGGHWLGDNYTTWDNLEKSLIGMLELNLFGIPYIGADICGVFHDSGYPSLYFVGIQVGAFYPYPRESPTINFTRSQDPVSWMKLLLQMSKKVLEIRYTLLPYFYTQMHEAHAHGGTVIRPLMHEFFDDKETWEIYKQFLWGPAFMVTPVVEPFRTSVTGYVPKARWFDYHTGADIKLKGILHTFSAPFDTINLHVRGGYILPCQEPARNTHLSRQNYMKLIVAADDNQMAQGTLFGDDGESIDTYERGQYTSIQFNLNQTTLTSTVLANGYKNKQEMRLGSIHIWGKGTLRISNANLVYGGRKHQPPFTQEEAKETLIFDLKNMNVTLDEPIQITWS
One number for each entry, as −log10 of the molar value.

CCC[C@@H](O)[C@@H]1N[C@@H](CO)[C@H](O)[C@H]1O | 5.24
CCCCCCCC[C@H]1N[C@H](CO)[C@@H](O)[C@H](O)[C@H]1O | 5.82
CCCCCC[C@H]1N[C@H](CO)[C@@H](O)[C@H](O)[C@H]1O | 5.62
CC(C)CCC[C@@H]1N[C@@H](CO)[C@H](O)[C@H]1O | 6.62
OC[C@@H]1N[C@@H](CCCCc2ccccc2)[C@H](O)[C@H]1O | 6.51

Please supply pIC50 for each of the following items, keeping them in order.
1. C[C@@]1(CO)NC[C@H](O)[C@H]1O
2. OC[C@@H]1N[C@@H](CO)[C@H](O)[C@H]1O
3. CCCC[C@H]1N[C@H](CO)[C@@H](O)[C@H](O)[C@H]1O
4. CCC[C@H](O)[C@@H]1N[C@@H](CO)[C@H](O)[C@H]1O

Result ::
[6.18, 6.21, 5.42, 6.17]

Query :: Request the reported pIC50 associated with CCCCN1C[C@H](O)[C@@H](O)[C@@H]1CO
Result :: 4.14

* * *

molecular target: UniProtKB P23739; assay: Inhibition of rat intestinal isomaltase […] as substrate
endpoint label: IC50 (µM)
One number for each entry, in µM.

Before answering, review these 8 worked examples.
CCCCN1C[C@H](O)[C@@H](O)[C@@H]1CO | 54
OC[C@@H]1N[C@@H](CO)[C@H](O)[C@H]1O | 0.77
OC[C@@H]1N[C@@H](CCCCc2ccccc2)[C@H](O)[C@H]1O | 14
CCC[C@H](O)[C@@H]1N[C@@H](CO)[C@H](O)[C@H]1O | 96
CCCCCC[C@H]1N[C@H](CO)[C@@H](O)[C@H](O)[C@H]1O | 0.31
CCCCCCCC[C@H]1N[C@H](CO)[C@@H](O)[C@H](O)[C@H]1O | 0.12
CCC[C@@H](O)[C@@H]1N[C@@H](CO)[C@H](O)[C@H]1O | 773
CCCC[C@H]1N[C@H](CO)[C@@H](O)[C@H](O)[C@H]1O | 0.45

Okay, next one:
Query :: Request the reported IC50 associated with CC(C)CCC[C@@H]1N[C@@H](CO)[C@H](O)[C@H]1O
Result :: 12

* * *

Target: Trehalase (Rattus norvegicus, UniProt O70282)
Sequence (O70282 whole entry): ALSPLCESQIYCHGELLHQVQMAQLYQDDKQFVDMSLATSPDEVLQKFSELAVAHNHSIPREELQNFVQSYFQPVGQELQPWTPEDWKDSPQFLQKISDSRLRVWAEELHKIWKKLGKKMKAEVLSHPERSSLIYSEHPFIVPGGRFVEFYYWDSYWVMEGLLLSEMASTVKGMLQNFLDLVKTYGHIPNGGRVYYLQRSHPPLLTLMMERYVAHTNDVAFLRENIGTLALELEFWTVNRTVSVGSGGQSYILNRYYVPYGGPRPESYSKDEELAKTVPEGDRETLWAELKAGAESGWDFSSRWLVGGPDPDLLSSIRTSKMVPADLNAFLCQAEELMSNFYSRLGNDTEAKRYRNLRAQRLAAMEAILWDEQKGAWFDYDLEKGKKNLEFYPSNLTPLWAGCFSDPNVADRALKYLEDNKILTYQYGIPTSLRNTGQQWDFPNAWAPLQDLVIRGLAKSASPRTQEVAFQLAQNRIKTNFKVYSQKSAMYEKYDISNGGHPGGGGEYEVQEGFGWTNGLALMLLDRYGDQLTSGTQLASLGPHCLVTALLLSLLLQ
endpoint label: pIC50
Give bare numbers, as −log10 of the molar value.

Before answering, review these 2 worked examples.
CCCCN1C[C@H](O)[C@@H](O)[C@H](O)[C@H]1CO | 4.42
CCCC[C@H]1N[C@H](CO)[C@@H](O)[C@H](O)[C@H]1O | 3.78

Okay, next one:
Query :: Give pIC50 (Trehalase (Rattus norvegicus, UniProt O70282)) of the following molecule: OC[C@@H]1NC[C@H](O)[C@H]1O
Result :: 4.12

* * *

species on record: Rattus norvegicus; assay: Inhibition of rat intestinal cellobiase using cellobiose as substrate at 1000 uM
Please go through the items and note down their inhibition.

Before answering, review these 3 worked examples.
CCCC[C@@H]1N[C@@H](CO)[C@H](O)[C@H]1O | < 50%
CCCCN1C[C@H](O)[C@@H](O)[C@@H]1CO | < 50%
OC[C@@H]1NC[C@H](O)[C@H]1O | < 50%

Please supply inhibition for each of the following items, keeping them in order.
1. CCCC[C@H]1N[C@H](CO)[C@@H](O)[C@H](O)[C@H]1O
2. CCCCN1C[C@H](O)[C@@H](O)[C@H](O)[C@H]1CO

Result ::
1: < 50%; 2: < 50%
